Quick list: pKi per entry.
Molecular target: Mucosa-associated lymphoid tissue lymphoma translocation protein 1 (Homo sapiens)
Sequence (Q9UDY8 whole entry): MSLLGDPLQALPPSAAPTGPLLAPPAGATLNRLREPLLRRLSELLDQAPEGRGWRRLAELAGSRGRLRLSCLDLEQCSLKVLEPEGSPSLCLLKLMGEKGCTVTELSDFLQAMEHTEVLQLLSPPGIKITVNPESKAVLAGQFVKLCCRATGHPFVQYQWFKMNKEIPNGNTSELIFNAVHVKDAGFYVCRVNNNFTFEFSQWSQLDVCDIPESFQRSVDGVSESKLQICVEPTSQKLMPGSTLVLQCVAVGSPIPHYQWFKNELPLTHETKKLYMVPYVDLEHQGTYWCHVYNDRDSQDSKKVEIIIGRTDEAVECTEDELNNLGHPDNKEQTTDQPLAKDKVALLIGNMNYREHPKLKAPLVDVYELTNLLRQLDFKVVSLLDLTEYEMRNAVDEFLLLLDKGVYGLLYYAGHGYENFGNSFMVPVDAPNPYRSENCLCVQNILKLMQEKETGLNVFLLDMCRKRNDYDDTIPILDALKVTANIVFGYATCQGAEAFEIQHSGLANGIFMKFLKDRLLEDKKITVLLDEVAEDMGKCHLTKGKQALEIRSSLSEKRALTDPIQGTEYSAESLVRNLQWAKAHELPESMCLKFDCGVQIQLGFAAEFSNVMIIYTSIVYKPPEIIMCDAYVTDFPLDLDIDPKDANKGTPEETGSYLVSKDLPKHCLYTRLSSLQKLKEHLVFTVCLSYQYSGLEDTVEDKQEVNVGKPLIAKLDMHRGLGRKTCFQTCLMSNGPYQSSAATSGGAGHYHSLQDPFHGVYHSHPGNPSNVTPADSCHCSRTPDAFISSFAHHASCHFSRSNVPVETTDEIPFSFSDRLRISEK
# pKi is unitless: minus log10 of the molar concentration; print number only

Structure Smiles String	Recorded Value
N=C(N)NCCC[C@H](NC(=O)[C@@H]1C[C@@H](O)CN1C(=O)[C@@H](NC(=O)c1ccc(Br)cc1)C1CCCCC1)C(=O)CF	7.47
CC(C)[C@H](NS(=O)(=O)c1ccc(Br)cc1)C(=O)N1CCC[C@H]1C(=O)N[C@@H](CCCNC(=N)N)C(=O)CF	7.18
CC(C)c1ccc(C(=O)N[C@H](C(=O)N2CCC[C@H]2C(=O)N[C@@H](CCCNC(=N)N)C(=O)CF)C(C)C)cc1	7.66
CC(C)[C@H](NC(=O)c1ccc(Br)c(C#N)c1)C(=O)N1CCC[C@H]1C(=O)N[C@@H](CCCNC(=N)N)C(=O)CF	7.89
CC(C)[C@H](NC(=O)Nc1ccccc1Cl)C(=O)N1CCC[C@H]1C(=O)N[C@@H](CCCNC(=N)N)C(=O)CF	7.62

Which pKi is listed for `CC(C)[C@H](NC(=O)c1ccc(Br)c(F)c1)C(=O)N1CCC[C@H]1C(=O)N[C@@H](CCCNC(=N)N)C(=O)CF` ?
7.11

Bench note: what pKi did `Cc1nc(C(=O)N[C@H](C(=O)N2CCC[C@H]2C(=O)N[C@@H](CCCNC(=N)N)C(=O)CF)C(C)C)cs1` show?
7.28
